# target: T1, DLL3 on SHP-77 cells (human, UniProt Q9NYJ7 27-618)
# T1 construct: SHP-77 cells are human-derived, non-engineered SCLC cells
# T1 sequence: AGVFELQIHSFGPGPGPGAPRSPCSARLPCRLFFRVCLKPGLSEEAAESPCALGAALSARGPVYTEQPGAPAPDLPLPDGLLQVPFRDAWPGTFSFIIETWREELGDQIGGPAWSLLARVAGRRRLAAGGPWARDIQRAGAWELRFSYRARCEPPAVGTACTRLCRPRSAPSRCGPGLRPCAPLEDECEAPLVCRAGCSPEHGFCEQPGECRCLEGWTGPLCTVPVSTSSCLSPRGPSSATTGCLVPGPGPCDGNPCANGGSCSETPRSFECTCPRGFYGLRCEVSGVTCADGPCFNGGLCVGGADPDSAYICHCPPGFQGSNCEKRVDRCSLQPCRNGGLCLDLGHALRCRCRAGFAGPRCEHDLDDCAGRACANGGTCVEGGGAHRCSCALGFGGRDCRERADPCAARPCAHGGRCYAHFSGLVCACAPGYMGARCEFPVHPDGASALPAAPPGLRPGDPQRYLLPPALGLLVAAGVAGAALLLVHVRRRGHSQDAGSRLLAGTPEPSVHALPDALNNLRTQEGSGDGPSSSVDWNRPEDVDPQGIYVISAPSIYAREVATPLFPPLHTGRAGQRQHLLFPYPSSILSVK
# test-name: 177Lu-peptide bound to SHP-77 cells, gamma counting; letter grade, key in paragraph 629
Bridge positions count the residues as written; N and C are the ends. Square brackets hold non-standard residues; d marks the D form. * marks the point of attachment. DOTA = O=C(O)CN1CCN(CC(=O)O)CCN(CC(=O)*)CCN(CC(=O)O)CC1; 2Nal = N[C@@H](Cc1ccc2ccccc2c1)C(=O)O
observed-property: % Binding

Batch request: % Binding for each of the following binders.
1. Ac-WTICNN[2Nal]HDCWP[dK](DOTA)-NH2 (bridge 4-10; also: 177Lu chelated in DOTA, also called [177Lu]Lu-test peptide) [[177Lu]Lu-labelled Cpd No. 165]
2. Ac-WTICNN[2Nal]HDCWP[dK](DOTA)-NH2 (disulfide 4-10; also: 177Lu in the DOTA chelator, also called [177Lu]Lu-test peptide) [[177Lu]Lu-labelled Cpd No. 75]
3. Ac-WTICNNWHDCWP[dK](DOTA)-NH2 (disulfide 4-10; also: 177Lu chelated in DOTA, also called [177Lu]Lu-test peptide) [[177Lu]Lu-labelled Cpd No. 23]

1. ≤ 25%
2. ≤ 25%
3. ≤ 25%
